As shown below, each of these compounds has a reported max activity value.
TEST_DETAILS: inhibitors of Clostridioides difficile proliferation – 4-point retest, confirmation (AID 1224921);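 note: plate controls were DMSO wells for no effect and levofloxacin 16 µg/mL wells for full effect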
EXPERIMENTAL_CONDITIONS: Clostridioides difficile clinical isolate growth, OD600, 24 h, active compounds read low; at 30 µM unless noted
In all, about 1,400 compounds went through this assay and about 350 (25%) were called active. About 2% were inconclusive and are not listed. Not all results are given here. Results with a measured potency or affinity are listed apart.

>>> result("CO[C@@H]1CN(C)C(=O)c2cc(NS(=O)(=O)c3cn(C)cn3)ccc2OC[C@@H](C)N(Cc2ccc(C(F)(F)F)cc2)C[C@H]1C")
"43.6% (inactive)"
>>> result("CCCC#Cc1ccc2c(c1)O[C@H](CN(C)Cc1cccnc1)[C@@H](C)CN([C@H](C)CO)S2(=O)=O")
"41% (inactive)"
>>> result("CO[C@H]1CN(C)C(=O)c2cc(NC(=O)Nc3cccc(F)c3)ccc2OC[C@@H](C)N(C)C[C@@H]1C")
"-17.5% (inactive)"
>>> result("CCCC(=O)Nc1ccc2c(c1)OC[C@H](C)N(CCc1ccccc1)C[C@H](C)[C@@H](OC)CN(C)C2=O")
"22% (inactive)"
>>> result("CCC(=O)Nc1ccc2c(c1)OC[C@H](C)N(CC1CCCCC1)C[C@@H](C)[C@@H](OC)CN(C)C2=O")
"8.81% (inactive)"
>>> result("C[C@@H]1CN([C@H](C)CO)C(=O)c2cc(NC(=O)Nc3cccc4ccccc34)ccc2O[C@@H](C)CCCCO[C@H]1CN(C)S(=O)(=O)c1cn(C)cn1")
"30.5% [at 35 µM] (inactive)"
>>> result("CCC(CO)Oc1cc(NCc2ccccc2)c2ncn(C(C)C)c2c1 (centres undefined)")
"-5.47% [at 8 µM] (inactive)"
>>> result("COCC#Cc1ccc2c(c1)O[C@@H](CN(C)Cc1ccncc1)[C@@H](C)CN([C@H](C)CO)S2(=O)=O")
"17.6% (inactive)"

Given item CC(C)CC#Cc1ccc2c(c1)O[C@H](CN(C)Cc1ccccc1F)[C@H](C)CN([C@H](C)CO)S2(=O)=O , the value recorded as its max activity is 28.2% (inactive)

====

TEST_DETAILS: inhibitors of Clostridioides difficile proliferation – 4-point retest, confirmation (AID 1224921);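 note: plate controls were DMSO wells for no effect and levofloxacin 16 µg/mL wells for full effect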
EXPERIMENTAL_CONDITIONS: Clostridioides difficile clinical isolate growth, OD600, 24 h, active compounds read low; at 30 µM unless noted
Out of some 1,400 compounds screened, about 350 (25%) were called active. Not shown: some 2% with an inconclusive outcome. Only a sample is shown. Entries with a potency or affinity are not part of this list.
RESULT_TYPE: max activity

Below: 8 compounds and their reported max activity.
>>> result("CO[C@@H]1CN(C)C(=O)c2ccc(NC(=O)c3nc4ccccc4s3)cc2OC[C@@H](C)N(Cc2ccncc2)C[C@@H]1C")
"23.4% (inactive)"
>>> result("CO[C@@H]1CN(C)C(=O)c2ccc(NC(=O)Nc3ccccc3)cc2OC[C@H](C)NC[C@@H]1C")
"-13.5% [at 8 µM] (inactive)"
>>> result("COc1ccc(-c2cnc3c(c2)C(=O)N([C@H](C)CO)C[C@H](C)[C@@H](CN(C)Cc2ccc(C(=O)O)cc2)O3)cc1")
"-17.6% [at 2.1 µM] (inactive)"
>>> result("O=C(C[C@H]1C[C@@H]2c3cc(NC(=O)C4CCC4)ccc3O[C@@H]2[C@@H](CO)O1)NCc1ccc(Cl)cc1")
"-16.5% [at 0.5 µM] (inactive)"
>>> result("O=C(C[C@H]1CC[C@H]2[C@@H](COC[C@H](O)CN2Cc2cc(F)ccc2F)O1)NCc1ccc(F)cc1")
"-6.27% (inactive)"
>>> result("C[C@@H]1CN([C@@H](C)CO)S(=O)(=O)c2ccc(C3=CCCCC3)cc2O[C@H]1CN(C)Cc1ccncc1")
"29.4% (inactive)"
>>> result("CO[C@H]1CN(C)C(=O)c2cc(NC(=O)c3cc(C)on3)ccc2OC[C@H](C)N(C(C)=O)C[C@H]1C")
"-7.95% [at 1.95 µM] (inactive)"
>>> result("CC(C)NC(=O)N(C)C[C@H]1Oc2c(NC(=O)Nc3ccc(C(F)(F)F)cc3)cccc2C(=O)N([C@@H](C)CO)C[C@H]1C")
"34.2% [at 8 µM] (inactive)"

For this compound ( COc1ccccc1C#Cc1ccc2c(c1)O[C@@H](CN(C)Cc1cccnc1)[C@@H](C)CN([C@@H](C)CO)S2(=O)=O ), measured max activity is 24.6% (inactive)

# compound CCCC(=O)Nc1ccc2c(c1)OC[C@H](C)N(CCc1ccccc1)C[C@@H](C)[C@@H](OC)CN(C)C2=O ; its max activity = -11.5% [at 0.5 µM] (inactive)

// sample CO[C@@H]1CN(C)C(=O)c2ccc(NC(=O)c3nc4ccccc4s3)cc2OC[C@H](C)N(Cc2ccncc2)C[C@@H]1C , its max activity was 26.2% (inactive)
